Test system: P388
assay-summary: Concentration required for 50% inhibition of incorporation of labeled uridine by P388 cells for the synthesis of RNA (in vitro)
Assay type: functional
condition-parameters: Mus musculus, read-out: ED50 (the source's name)
*1 amine or outer side, *2 acyl side, *3 side chain or, on linkers, in order; H or OH if unused. Where a SMILES comes first, the peptide text is derived from it. Bridges are numbered along the chain shown (N, C = ends). Roman numbers before positions name the chains, in order. [ ]: non-standard residue; d: D form. Actinocin(9to1) = Cc1c2oc3c(C)ccc(C(=O)[*:1])c3nc-2c(C(=O)[*:2])c(N)c1=O; NMeV = CN[C@H](C(=O)O)C(C)C; Sar = CNCC(=O)O
quantity-measured: pEC50
API: returns pEC50 as number; meaning -log10 of concentration in mol/L.

Name the reported pEC50 value associated with the compound Cc1c2oc3c(C)c(O)c(N)c(C(=O)N[C@@H]4C(=O)N[C@H](C(C)C)C(=O)N5CCC[C@H]5C(=O)N(C)CC(=O)N(C)[C@@H](C(C)C)C(=O)O[C@@H]4C)c3nc-2c(C(=O)N[C@@H]2C(=O)N[C@H](C(C)C)C(=O)N3CCC[C@H]3C(=O)N(C)CC(=O)N(C)[C@@H](C(C)C)C(=O)O[C@@H]2C)c/c1=N/Cc1cccc(Oc2ccccc2)c1
6.15

Please do the same for COc1cc(C(=O)N[C@@H]2C(=O)N[C@H](C(C)C)C(=O)N3CCC[C@H]3C(=O)N(C)CC(=O)N(C)[C@@H](C(C)C)C(=O)O[C@@H]2C)c2nc3c(C(=O)N[C@@H]4C(=O)N[C@H](C(C)C)C(=O)N5CCC[C@H]5C(=O)N(C)CC(=O)N(C)[C@@H](C(C)C)C(=O)O[C@@H]4C)c(N)c(=O)c(C)c-3oc2c1C as well.
7.16

Then Cc1c2oc3c(C)ccc(C(=O)N[C@@H]4C(=O)N[C@H](C(C)C)C(=O)N5CCC[C@H]5C(=O)N(C)CC(=O)N(C)[C@@H](C(C)C)C(=O)O[C@@H]4C)c3nc-2c(C(=O)N[C@@H]2C(=O)N[C@H](C(C)C)C(=O)N3CCC[C@H]3C(=O)N(C)CC(=O)N(C)[C@@H](C(C)C)C(=O)O[C@@H]2C)c(NCCCCN)c1=O ?
6.46

Queued: Cc1c2oc3c(C)ccc(C(=O)N[C@@H]4C(=O)N[C@H](C(C)C)C(=O)N5CCC[C@H]5C(=O)N(C)CC(=O)N(C)[C@@H](C(C)C)C(=O)O[C@@H]4C)c3nc-2c(C(=O)N[C@@H]2C(=O)N[C@H](C(C)C)C(=O)N3CCC[C@H]3C(=O)N(C)CC(=O)N(C)[C@@H](C(C)C)C(=O)O[C@@H]2C)c(N)c1=O [DACTINOMYCIN] (I: T[dV]P[Sar][NMeV] / II: T[dV]P[Sar][NMeV]; ester I:1-I:C, II:1-II:C; linker I:N-II:N via Actinocin(9to1))
7.34

How about this compound: CCCOc1cc(C(=O)N[C@@H]2C(=O)N[C@H](C(C)C)C(=O)N3CCC[C@H]3C(=O)N(C)CC(=O)N(C)[C@@H](C(C)C)C(=O)O[C@@H]2C)c2nc3c(C(=O)N[C@@H]4C(=O)N[C@H](C(C)C)C(=O)N5CCC[C@H]5C(=O)N(C)CC(=O)N(C)[C@@H](C(C)C)C(=O)O[C@@H]4C)c(N)c(=O)c(C)c-3oc2c1C
6.64

And for Cc1c2oc3c(C)c(O)c(N)c(C(=O)N[C@@H]4C(=O)N[C@H](C(C)C)C(=O)N5CCC[C@H]5C(=O)N(C)CC(=O)N(C)[C@@H](C(C)C)C(=O)O[C@@H]4C)c3nc-2c(C(=O)N[C@@H]2C(=O)N[C@H](C(C)C)C(=O)N3CCC[C@H]3C(=O)N(C)CC(=O)N(C)[C@@H](C(C)C)C(=O)O[C@@H]2C)cc1=O ?
5.49
